- System: OVCAR-4 ovarian
- protocol_summary: NCI-60 one-dose screen, 48 h (100 = growth as untreated, 0 = no growth, -100 = all killed)
- conditions: 10 µM unless noted
About 83,000 compounds went through this panel and 20% of them were active in at least one assay; those are over-represented in the sample as a whole. Activity calls are given as the source filed them. The calls were made as follows: active = growth percent below 10; inactive = the rest.
measurement_kind: growth

The cases that follow already have their growth on record.
INSERT INTO measurements (compound, tested_on, meas_value) VALUES
  ('Cc1ccnc2c1ccc1c(C)ccnc12', 'OVCAR-4 ovarian', '24.1% (inactive)'),
  ('O=C(CC1(O)C(=O)Nc2c(Cl)ccc(Cl)c21)c1ccc(Cl)cc1Cl (stereo unspecified)', 'OVCAR-4 ovarian', '87.9% (inactive)'),
  ('CN(C)c1ccc(N=Nc2cccc3ccccc23)cc1', 'OVCAR-4 ovarian', '81.4% (inactive)'),
  ('NC(=O)/C=C/C(=O)c1c(Cl)cccc1Cl', 'OVCAR-4 ovarian', '-67.4% (active)'),
  ('CNc1ccc2c(c1)c1ccccc1n2C', 'OVCAR-4 ovarian', '108% (inactive)');

Item `C[N+](C)=c1ccc2nc3c(cc(NCCCNc4cc5oc6cc(=[N+](C)C)ccc-6nc5c5ccccc45)c4ccccc43)oc-2c1` : provide growth -100% (active)

Item `COc1ccccc1/C=C\C(=O)c1ccccc1` : provide growth 81.2% (inactive)

Item `N#CSCc1ccc(CSC#N)c(Cl)c1` : provide growth 85.2% (inactive)

Item COC(=O)[C@@]12OC[C@]34[C@H]([C@@H](O)[C@@H]1O)[C@@]1(C)[C@H](O)C(=O)C=C(C)[C@@H]1C[C@H]3OC(=O)C(OC(C)=O)[C@@H]24 (stereo partly specified) : provide growth 3.68% (active)

Item `Cc1ccc2c(ccc3c[n+]4c5ccccc5ccc4n32)c1` : provide growth -35.4% (active)

Item `Cc1cc2nc(CS)[nH]c2cc1C` : provide growth 85.5% (inactive)

---

- System: SK-MEL-5 melanoma
- protocol_summary: NCI-60 one-dose screen, 48 h
- conditions: 10 µM unless noted
Compounds without any hit were thinned out: in the full panel of roughly 83,000, 20% have a hit. The source made the active and inactive calls. How the source made its calls: active means growth percent below 10; inactive means the rest.
Valid outcomes are listed here; reply with one: yes (active), no (inactive)

INSERT INTO measurements (compound, label_value) VALUES
  ('NC(=S)N/N=C\c1nccc2c(C(F)(F)C(F)(F)C(F)(F)F)cccc12', 'yes');

Look up the recorded call for `Cc1ccnc2c1ccc1c(C)ccnc12` in this test. no

Look up the recorded call for `Cc1ccc2nc(-[n+]3cc4ccccc4cc3C)ccc2c1` in this test. yes

Look up the recorded call for `N#CSCC(=O)c1ccc(Cl)cc1` in this test. no

Look up the recorded call for `C[n+]1c(/C=C/c2ccc([N+](=O)[O-])cc2)ccc2ccccc21` in this test. no

Look up the recorded call for `O=C(Nc1cccc(Br)c1)Oc1ccc(Cl)c2cccnc12` in this test. yes

Look up the recorded call for `O=C1OCc2cccc3cccc1c23` in this test. no

Look up the recorded call for `N[C@H](C(=O)O)[C@@H]1CC(Cl)=NO1` in this test. no

Look up the recorded call for `O=C1NC(=O)/C(=C/C=C/c2ccccc2)S1` in this test. no

---

- Test system: HT29 colon
- protocol_summary: NCI-60 one-dose screen, 48 h (100 = growth as untreated, 0 = no growth, -100 = all killed)
- conditions: 100 µM
Compounds without any hit were thinned out: in the full panel of roughly 83,000, 20% have a hit.
In plain terms, low growth, meaning strictly below 50%, gives label 1, and everything else gives label 0.

Take a look at these entries with their results.
INSERT INTO results (line_notation, tested_on, label_value) VALUES
  ('COc1ccc(-c2cscc2N)cc1', 'HT29 colon', 'label 0'),
  ('O=C(Nc1cccc(Br)c1)Oc1cccc2cccnc12', 'HT29 colon', 'label 0');

I wonder whether `CN(C)C(=O)c1ccc(SC(=S)NCc2ccccc2)cc1` has growth below 50%. Can you tell? label 1

I wonder whether `O=C(O)c1c(Cl)c(Cl)c(Cl)c(Cl)c1-c1c2cc(I)c(=O)c(I)c-2oc2c(I)c(O)c(I)cc12` has growth below 50%. Can you tell? label 1

I wonder whether `O=C(Nc1c(Cl)cccc1Cl)Oc1cccc2cccnc12` has growth below 50%. Can you tell? label 0

---

- Tested on: HCT-15 colon
- protocol_summary: NCI-60 one-dose screen, 48 h (100 = growth as untreated, 0 = no growth, -100 = all killed)
- conditions: 10 µM unless noted
This is part of a sample that, as a whole, favours compounds with a hit. Of some 83,000 tested, about 20% had one in any assay. Calls of active or inactive are those of the source. Rule for the calls: active = growth percent below 10; inactive = the rest.
Catalogue of compounds with associated growth

The cases that follow already have their growth on record.
INSERT INTO assay_data (compound, tested_on, measurement_kind, meas_value) VALUES
  ('O=C(CC1(O)C(=O)Nc2c(Cl)ccc(Cl)c21)c1ccc(Cl)cc1Cl (stereo unspecified)', 'HCT-15 colon', 'growth', '101% (inactive)'),
  ('Cc1ccc(C(=Nc2ccccc2)N=P(c2ccccc2)(c2ccccc2)c2ccccc2)cc1', 'HCT-15 colon', 'growth', '2.78% (active)'),
  ('N#CSCC(=O)c1ccc(Cl)cc1', 'HCT-15 colon', 'growth', '18.1% (inactive)'),
  ('Oc1c(Br)cc(Cl)cc1C(c1cc(Cl)cc(Br)c1O)C(Cl)(Cl)Cl', 'HCT-15 colon', 'growth', '17.2% (inactive)'),
  ('COc1cc(NS(C)(=O)=O)ccc1Nc1c2ccccc2nc2ccccc12', 'HCT-15 colon', 'growth', '29.4% [2.5 µM] (inactive)');

Lab note: next compound to report on.
Please respond with reported growth (system HCT-15 colon) for `CCC(CC)COC(=O)c1ccc(O)c(O)c1` . 49.2% (inactive)

---

- Tested on: OVCAR-3 ovarian
- protocol_summary: NCI-60 one-dose screen, 48 h (100 = growth as untreated, 0 = no growth, -100 = all killed)
- conditions: 100 µM
About 83,000 compounds went through this panel and 20% of them were active in at least one assay; those are over-represented in the sample as a whole.
measurement_kind: growth (%)
Give the value, in units of %, as a plain number.

The cases that follow already have their growth on record.
INSERT INTO assay_data (line_notation, measurement_kind, meas_value) VALUES
  ('COc1ccc(-c2cscc2N)cc1', 'growth', 40.9),
  ('O=C(O)c1c(Cl)c(Cl)c(Cl)c(Cl)c1-c1c2cc(I)c(=O)c(I)c-2oc2c(I)c(O)c(I)cc12', 'growth', -26.1),
  ('O=C(Nc1c(Cl)cccc1Cl)Oc1cccc2cccnc12', 'growth', 4.16);

Lab note: next compound to report on.
Item `CN(C)C(=O)c1ccc(SC(=S)NCc2ccccc2)cc1` : provide growth 46.9

---

- Test system: OVCAR-5 ovarian
- protocol_summary: NCI-60 one-dose screen, 48 h
- conditions: 10 µM unless noted
About 83,000 compounds went through this panel and 20% of them were active in at least one assay; those are over-represented in the sample as a whole. Calls of active or inactive are those of the source. How the source made its calls: active means growth percent below 10; inactive means the rest.
Valid outcomes are listed here; reply with one: 1 = active, -1 = inactive

Take a look at these entries with their results.
INSERT INTO results (molecule, label_value) VALUES
  ('O=C(Nc1ccc(F)cc1)ON=C1CCCCC1', -1),
  ('Cc1cc2nc(CS)[nH]c2cc1C', -1),
  ('Cc1ccnc2c1ccc1c(C)ccnc12', -1),
  ('COC(=O)c1nc(=S)[nH]c(C(=O)OC)c1C(=O)c1ccc2ccccc2c1', -1),
  ('CCCCCC(CCCCC)C(=O)O', -1),
  ('CN(C)CCOc1ccc2c(c1)C(=O)/C(=C\c1ncc([N+](=O)[O-])n1C)C2', 1),
  ('CN(Cc1cnc2nc(N)nc(N)c2n1)c1ccc(C(=O)NC(CCC(=O)O)C(=O)O)cc1 (stereo not given)', -1),
  ('O=[N+]([O-])c1ccc(N=Nc2ccc(O)cc2O)cc1', -1);

Look up the recorded call for `Oc1ccc(/C=N/NC(=S)Nc2ccccc2)nc1` in this test. -1

Look up the recorded call for `CCN(CC)CCOc1ccc(-c2nc3cc(Cl)ccc3s2)cc1` in this test. 1

Look up the recorded call for `OC(CNc1ccnc2cc(Cl)ccc12)CNc1ccnc2cc(Cl)ccc12` in this test. -1

Look up the recorded call for `Oc1c(Cl)c2ccccc2c2ccccc12` in this test. -1

Look up the recorded call for `O=C1C=CC(=O)N1C1c2ccccc2-c2ccccc21` in this test. -1

---

- Test system: MOLT-4 leukemia
- protocol_summary: NCI-60 one-dose screen, 48 h
- conditions: 10 µM unless noted
The panel holds about 83,000 compounds, 20% with a hit somewhere; the sample as a whole holds those more often. Calls of active or inactive are those of the source. The calls were made as follows: active = growth percent below 10; inactive = the rest. Where a SMILES comes first, the peptide text is derived from it. The star is where a group is joined. Trt = c1ccc(C(c2ccccc2)(c2ccccc2)*)cc1; Cbz = O=C(OCc1ccccc1)*
Valid outcomes are listed here; reply with one: active, inactive

INSERT INTO results (molecule, tested_on, label_value) VALUES
  ('Cc1c2ccccc2c(C)c2c1ccc1ccccc12', 'MOLT-4 leukemia', 'inactive'),
  ('N#Cc1ccc([N+](=O)[O-])o1', 'MOLT-4 leukemia', 'inactive'),
  ('N#CSCc1ccc(CSC#N)c(Cl)c1', 'MOLT-4 leukemia', 'inactive'),
  ('COC(=O)C(CSC(c1ccccc1)(c1ccccc1)c1ccccc1)NC(=O)C(CC(N)=O)NC(=O)OCc1ccccc1 (stereo not drawn) (Cbz-Asn-Cys(Trt)-OMe; configuration not given here)', 'MOLT-4 leukemia', 'active'),
  ('COc1cc(NS(C)(=O)=O)ccc1Nc1c2ccccc2nc2ccccc12', 'MOLT-4 leukemia', 'active'),
  ('COc1ccc2nc3cc(Cl)ccc3c(NCCNc3c4ccc(Cl)cc4nc4ccc(OC)cc34)c2c1', 'MOLT-4 leukemia', 'active'),
  ('Cc1ccc(C(=Nc2ccccc2)N=P(c2ccccc2)(c2ccccc2)c2ccccc2)cc1', 'MOLT-4 leukemia', 'active'),
  ('CCCCCCCCCCCCCCCCOP(=O)([O-])OCC[N+](C)(C)C', 'MOLT-4 leukemia', 'active'),
  ('Cn1c2c(c3ccccc31)CCN1C[C@@H]3CCCC[C@H]3C[C@@H]21', 'MOLT-4 leukemia', 'inactive');

Look up the recorded call for `CCN(CC)CCOc1ccc(-c2nc3cc(Cl)ccc3s2)cc1` in this test. active
